The measured values listed here are drawn from paper PMC5540273.

Reported %Inh is given for each of the following compounds.
Test system: TSSK3;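 further: KINOMEscan kinase panel screen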
Settings: concentration: 1 μM,replicates: in singlicate; n = 1
The answer should read as a number with its unit following.

Past entries and their recorded results:
| Compound | %Inh |
| --- | --- |
| CN(c1ccc2c(c1)nc(NCc1ccc(F)cc1)n2C)c1ccnc(Nc2ccc(CS(C)(=O)=O)cc2)n1.Cl | 4% |
| Cn1ccc2ncnc(Oc3ccc(NC(=O)Nc4cccc(C(F)(F)F)c4)c(Cl)c3)c21 | 0% |
| CC(C)c1nc(-c2cccc(NS(=O)(=O)c3ccccc3)c2)c(-c2ccnc(Nc3ccc4c(c3)CN(C)CC4)n2)s1 | 0% |
| Cn1ccc2ncnc(Oc3ccc(NC(=O)Nc4cccc(C(F)(F)F)c4)c(F)c3)c21 | 0% |
| CC(=O)Nc1nc2cnc(Nc3cc(NC(=O)c4cccc(CC(C)(C)C#N)c4)ccc3C)nc2s1 | 1% |
| COc1cc2ncn(-c3cc(OCC4CCCCC4)c(C(N)=O)s3)c2cc1OC | 3% |
| C[C@@H]1CNc2c(sc3ccc4nc(-c5ccc(O)cc5)ccc4c23)C(=O)N1 | 4% |
| O=C1NCCc2[nH]c(-c3ccncc3)cc21 | 0% |
| CC(C)S(=O)(=O)N1CCN(Cc2ccc3c(c2)nc(NC(=O)c2ccsc2)n3C[C@H](O)c2ccccc2)CC1 | 16% |
| CC(=O)c1c(-c2ccncc2)[nH]c(-c2ccncc2)c1C | 13% |

Prompt line: Need %Inh of CC(=O)Nc1ccc(-c2cc3ncnc(SCC(=O)O)c3s2)cc1 , thanks.
Response line: 0%

Prompt line: Which %Inh value belongs to C[C@@H](Oc1cc(-n2cnc3cc(-c4ccncc4)ccc32)sc1C(N)=O)c1ccccc1Cl ?
Response line: 13%

Prompt line: Recorded %Inh for COc1cc2c(Nc3ccc(NC(=O)c4ccccc4)cc3)ncnc2cc1OCCCN1CCOCC1 , please?
Response line: 16%

Prompt line: Which value of %Inh has been reported for CSc1nccc(-c2c(-c3ccc(F)cc3)ncn2CCCN2CCOCC2)n1.Cl in the records?
Response line: 0%

Prompt line: Can you look up the measured %Inh of CC(C(=O)NC1CCN(c2ccnc(Nc3ccc(F)cc3)n2)C1)c1ccc(Cl)cc1 (stereo not drawn) for me?
Response line: 5%

Prompt line: %Inh for O=C(NOCC1CC1)c1cc(Br)c(F)c(F)c1Nc1ccc(I)cc1Cl ?
Response line: 9%

Prompt line: Give its %Inh value. Item: Cc1nnc(-c2ccc3occ(-c4ccc(S(C)=O)cc4)c3n2)o1 (stereo not drawn)
Response line: 0%

Prompt line: Item under review: CN(c1cccc(CNc2nc(Nc3ccc4c(c3)CC(=O)N4)ncc2C(F)(F)F)c1)S(C)(=O)=O . Reported %Inh?
Response line: 15%
